- Assay target: Fyn (UniProt P06241)
- Sequence (P06241 whole entry, looked up): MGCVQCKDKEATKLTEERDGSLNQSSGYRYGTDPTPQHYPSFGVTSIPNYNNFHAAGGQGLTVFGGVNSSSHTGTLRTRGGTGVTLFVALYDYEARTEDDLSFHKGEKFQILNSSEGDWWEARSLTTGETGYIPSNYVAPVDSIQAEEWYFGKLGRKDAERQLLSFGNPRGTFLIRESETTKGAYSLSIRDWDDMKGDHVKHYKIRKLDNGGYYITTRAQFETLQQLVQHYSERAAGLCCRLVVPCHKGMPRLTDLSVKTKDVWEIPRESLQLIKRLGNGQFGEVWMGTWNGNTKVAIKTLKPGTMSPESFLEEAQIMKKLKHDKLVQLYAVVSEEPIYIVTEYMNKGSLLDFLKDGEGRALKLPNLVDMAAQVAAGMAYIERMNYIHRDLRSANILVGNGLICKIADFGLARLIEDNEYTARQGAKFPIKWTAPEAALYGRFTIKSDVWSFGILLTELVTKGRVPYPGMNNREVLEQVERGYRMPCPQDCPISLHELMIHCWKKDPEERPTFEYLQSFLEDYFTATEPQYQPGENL
- Procedure details: phosphorylation enrichment, bacterial display (enrichment ratio); higher = better substrate or ligand; peptides without Tyr show the background;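 also: 11-residue human phosphosite peptides and single-mutation variants displayed on the E. coli surface, counted by deep sequencing, each peptide's frequency after selection divided by its frequency in the unselected input library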;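 also: frequency after pTyr selection over input frequency; kinase dosed for 20-30% of maximal phosphorylation in three min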
I'd be grateful if you could share measured phosphorylation enrichment for these entries.

Lab note: need phosphorylation enrichment for MKALGYFAVVT [OPA1_Y498] on Fyn (UniProt P06241), anyone have it? 0.63

Lab note: need phosphorylation enrichment for GEFHVYRHLRW [PRKRIP1_Y82_R87W] on Fyn (UniProt P06241), anyone have it? 0.428

Lab note: need phosphorylation enrichment for FVTSMYNEILM [TRPV1_Y310] on Fyn (UniProt P06241), anyone have it? 0.647

Lab note: need phosphorylation enrichment for EFTAGYNVKFD [GPX4_Y123_A120T] on Fyn (UniProt P06241), anyone have it? 0.465

Lab note: need phosphorylation enrichment for GDFSRYDEGSG [RECQL5_Y484] on Fyn (UniProt P06241), anyone have it? 0.502

Lab note: need phosphorylation enrichment for IPGMEYLVSII [TNC_Y1775_V1773M] on Fyn (UniProt P06241), anyone have it? 0.612

Lab note: need phosphorylation enrichment for QWRTKYEMDAI [MYH7_Y1375_T1377M] on Fyn (UniProt P06241), anyone have it? 0.773

Lab note: need phosphorylation enrichment for RMDGKYACSYT [FLNB_Y704_T703K] on Fyn (UniProt P06241), anyone have it? 0.418

Lab note: need phosphorylation enrichment for FQQLFYLLQTN [IQGAP2_Y890_YF] on Fyn (UniProt P06241), anyone have it? 0.608

Lab note: need phosphorylation enrichment for LAAAGYDVKKN [H1-3_Y72_E75K] on Fyn (UniProt P06241), anyone have it? 0.319

Lab note: need phosphorylation enrichment for ARSMEYLAEQK [MST1R_Y1198] on Fyn (UniProt P06241), anyone have it? 0.585

Lab note: need phosphorylation enrichment for AAGGRYYGLVG [HARS1_Y363_D364Y] on Fyn (UniProt P06241), anyone have it? 0.618

Lab note: need phosphorylation enrichment for YAFQLYDLDPD [CHP2_Y123_R127P] on Fyn (UniProt P06241), anyone have it? 4.7

Lab note: need phosphorylation enrichment for PQGVRYIYTID [DCX_Y103] on Fyn (UniProt P06241), anyone have it? 4.01
